Recorded glycan array binding signal (z-score) by entry
- STUDY_SYSTEM: Neu5Ac(a2-6)Gal(b1-4)GlcNAc(b1-2)Man(a1-6)[GlcNAc(b1-2)Man(a1-3)]Man(b1-4)GlcNAc(b1-4)GlcNAc
- TEST_DESCRIPTION: glycan array binding signal (z-score within array); higher = stronger binding
- CONDITION_CONTEXT: glycan notation: IUPAC condensed, linker removed
The sample as a whole holds a higher share of the strongest signals than the screen did.

BINDER	REPORTED_RESULT
LSECtin (Homo sapiens), Q6UXB4 (protein) MEQESALRELRERVTQGLAEAGRGREDVRTELFRALEAVRLQNNSCEPCPTSWLSFEGSCYFFSVPKTTWAAAQDHCADASAHLVIVGGLDEQGFLTRNTRGRGYWLGLRAVRHLGKVQGYQWVDGVSLSFSHWNQGEPNDAWGRENCVMMLHTGLWNDAPCDSEKDGWICEKKAQLLTPPSALEPRPLQHVVSWGLLTSLAPGADCQRVFSSSSTAAESQKHLAQHSPVQPSAWALGPPCRPHPNSTHADPT	5.21
RVL (Remusatia vivipara), B5LYJ9 (protein) MAKLLLFLLPAILGLLVPRSAVALGTNYLLSGQTLDTEGHLKNGDFDLVMQDDCNLVLYNGNWQSNTANNGRDCKLTLTDYGELVIKNGDGSTVWKSGAQSVKGNYAAVVHPDGRLVVLGPSVFKIDPWVRGLNSLRFRNIPFTNNLLFSGQVLYGDGRLTAKNHQLVMQGDCNLVLYGGKYGWQSNTHGNGEHCFLRLNHKGELIIKDDDFKTIWSSRSSSKQGEYVLILQDDGFGVIYGPAIFETSSKRSIAAS	-0.207
Nc3LysM (protein) QFTVPPDTTAEPNTIKTCTWWHVAGSGDSCTSIASTYGITSEQFARWDMETTDSPKNPSVATACKLTVGNSYCIENNFGQDDPPTPSISSSTLIGTATTSTTASTTTGNGISTPTPIQEGMETATTTTSSGNGITTPTPTQAGMETVGNCDRFHLVKSGDQCGTIASTYGITLANFYSWNPAVGTSCQSLWLDTYVCVRTIGFVPPKTTTTTTKKPTSTTSAGGVATPTPTQPGMETVSGCKKFHKGRGNVSTVASGDQCGTIATRYGISLANFYSWNPAVGSSCQTLWLDYYVCVGR	0.31
PpFlo3 (Pichia pastoris) (protein) MGSSHHHHHHSSGLVPRGSHMQESGNGTTSDTAYACDIGATPFDGFNATIYQYQASDDNSIQDPVFMSTGYLQRNQLHSTTGVTNPGFNIFTAGVATTTLYGIPNVNYQNMLLELKGYFRADASGNYGLSLRNIDDSAILFFGRETAFECCNENLIPLDEAPTDYSLFTIKEGEASTNPDSYTYTQYLEAGRYYPVRTFFANIRTRAVFNFTMTLPDGSELTDFQNYIFQFGALNQ	4.82

Input LSectin (Mus musculus), Q8BNX1 (protein) MNTGEYNKLGSAIEEVSRGQLGRWECYKQRLFFLVLALLVATVLWALILSTLLSSASSKLRVLLSHQDLLRTNASEQKMTLSSLKDDIGACRNCCSVTKAQLQTTLAEFKDIQAKLMEQESILKELQERVTQDLAKASRDRENIRSELFQALEAVKRQNSSCEQCPPSWLPFQGSCYYFSETQATWDTAQSYCGGQGAHLVIVRGLNEQGFLSQHTRGRGYWLGLRAVRHLNKIQGYRWVDGASLNFSHWNSGEPNDSRGHEDCIMMLHSGLWNDAPCTNERDGWICEKRSSCY , output reported glycan array binding signal (z-score).
4.19

Assign glycan array binding signal (z-score) to the following record: Actd5 (Actinidia), P84527 (protein) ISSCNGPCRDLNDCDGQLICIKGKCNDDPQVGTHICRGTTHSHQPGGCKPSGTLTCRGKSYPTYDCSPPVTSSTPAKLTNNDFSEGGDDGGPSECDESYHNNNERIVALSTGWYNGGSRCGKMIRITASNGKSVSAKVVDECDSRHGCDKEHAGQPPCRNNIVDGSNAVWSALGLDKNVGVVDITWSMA
-0.496

Determine its reported glycan array binding signal (z-score): Gal 9 (Homo sapiens), O00182 (protein) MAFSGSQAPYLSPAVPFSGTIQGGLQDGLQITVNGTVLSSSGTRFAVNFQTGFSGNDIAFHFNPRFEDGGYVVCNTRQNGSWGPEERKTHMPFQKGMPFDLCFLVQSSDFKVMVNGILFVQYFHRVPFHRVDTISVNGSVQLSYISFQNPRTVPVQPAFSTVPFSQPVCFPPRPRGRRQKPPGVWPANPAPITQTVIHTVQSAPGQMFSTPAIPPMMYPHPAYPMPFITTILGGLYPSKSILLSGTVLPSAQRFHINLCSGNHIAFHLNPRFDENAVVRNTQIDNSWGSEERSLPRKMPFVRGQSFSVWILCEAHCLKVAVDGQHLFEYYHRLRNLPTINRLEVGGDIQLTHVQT
-0.323

For the binder Ovorubin (Pomacea canaliculata), J7I2T6 (protein) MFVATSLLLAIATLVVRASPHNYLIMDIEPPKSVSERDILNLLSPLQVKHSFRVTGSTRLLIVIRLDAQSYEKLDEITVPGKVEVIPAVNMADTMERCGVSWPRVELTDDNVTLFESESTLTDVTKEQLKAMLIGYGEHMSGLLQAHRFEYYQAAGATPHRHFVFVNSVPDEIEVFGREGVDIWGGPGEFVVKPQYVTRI , give its reported glycan array binding signal (z-score).
-0.738

Provide glycan array binding signal (z-score) value for the following binder: DCIR1 (Mus musculus), Q9QZ15 (protein) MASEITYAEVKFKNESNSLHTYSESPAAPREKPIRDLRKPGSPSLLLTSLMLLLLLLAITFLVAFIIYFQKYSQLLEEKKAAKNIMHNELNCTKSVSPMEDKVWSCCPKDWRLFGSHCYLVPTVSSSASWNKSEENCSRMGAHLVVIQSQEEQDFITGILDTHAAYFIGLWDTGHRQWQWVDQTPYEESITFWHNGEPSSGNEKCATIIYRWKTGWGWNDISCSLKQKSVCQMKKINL
2.04
